PROTOCOL: APR_HepG2_MitoMass_72hr: Apredica 72-hour HepG2 Assay for Mitochondrial Mass (AID 2282924);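 further: MitoTracker Red CMXRos stain intensity per cell imaged as mitochondrial mass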
CONDITIONS_USED: high-content imaging, actives raise or lower the signal
The source made the active and inactive calls. How the source made its calls: active means hit-call score of the fitted dose curve at least 0.9, where 1 is the maximum; inactive means score below 0.9.
Write down the outcome that applies. Available outcomes: active, inactive

# COMPOUND, GROUP
records = [
    ("COc1cc(S(=O)(=O)O)c(C)cc1N=Nc1c(O)ccc2cc(S(=O)(=O)O)ccc12", "inactive"),
    ("Cc1c(C(=O)O)c(O)cc2c1C(=O)c1c(O)c([C@@H]3O[C@H](CO)[C@@H](O)[C@H](O)[C@H]3O)c(O)c(O)c1C2=O", "inactive"),
    ("CC(CO)OC(C)CO (centres undefined) (tested in a mixture with another compound)", "inactive"),
]

**Query** Look up the recorded call for Nc1ccccc1N in this test.
**Result** active

**Query** Look up the recorded call for O=c1c(O)c(-c2ccc(O)c(O)c2)oc2cc(O)cc(O)c12 in this test.
**Result** active

**Query** Look up the recorded call for Oc1ccc2c(c1)OC[C@@H](N1CCC(O)(c3ccc(F)cc3)CC1)[C@H]2O in this test.
**Result** inactive

**Query** Look up the recorded call for COCCOCCOC in this test.
**Result** inactive

**Query** Look up the recorded call for CCCCCCCCCCCC(=O)OC in this test.
**Result** inactive

**Query** Look up the recorded call for CCCCOC(=O)CCCCCCCCC(=O)OCCCC in this test.
**Result** inactive
